- Test system: SF-268
- test: NCI tumour cell line growth inhibition, 48 h
Calls of active or inactive are those of the source. Cut-off read from the data, not from the text of the source: active = GI50 up to about 1.1 µM and inactive = higher.
Choose one outcome from this list and give only that: true = active, false = inactive

Example entries and their recorded answers appear below.
O=C(O)c1ccn(-c2cccc(-n3ccc(C(=O)O)n3)n2)n1    false
O=C(N[C@@H](c1ccccc1)[C@@H](O)C(=O)OCc1ccc([N+](=O)[O-])cc1)c1ccccc1    false
COc1cc(-c2coc3c(OC)c(OC4OC(COC5OC(C)C(O)C(O)C5O)C(O)C(O)C4O)c(OC)c(O)c3c2=O)cc(C)c1O (configuration not stated)    false

State the result this test recorded for ONCCCn1cnc2c(NC3CC3)ncnc21 .
false

Record request — test call for O=C(O)CNS(=O)(=O)c1ccc(NC(=O)CI)cc1
false

Identify the outcome logged in this assay for the compound shown: Cc1ccc2c(ccc(/C=C\c3cc(C)c4cccnc4c3O)[n+]2C)c1
false

GET /call?item= CC1(C)C(=O)C2(OS(=O)(=O)C(F)(F)F)CCC1C2 (configuration not stated) returns the recorded outcome of this test.
false

What classification did CC/C=C/C(/C=C/C[C@]1(CC)C[C@H](CC)[C@H](CC(=O)O)OO1)CC (some centres not stated) end up with in this test?
false

Hi, do you know how CS(=O)(=O)OC1CN2CCC1CC2 (configuration not stated) came out in this test?
false

What is the recorded call for this compound in the test? COc1ccc(C(=O)/C=C/c2ccc(OCC(=N)N)cc2)cc1OC
false

Entry C=C1CC(C)(c2cccc(Nc3nc4ccccc4c4occc34)c2)OC1=O (configuration not stated) : call = ?
false
